# experimental.details: small-molecule microarray binders of probe aLefty2, primary screen, biochemical, biotinylated probe, 635/667 nm fluorescence (AID 1094);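 also: score merges spot fluorescence near 667 nm with spot signal-to-noise ratio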
# experimental.setup: higher = more signal
Record true whenever composite z-score is at 0.02 or higher; record false when lower.

| molecule | category.label |
| --- | --- |
| CC(C)C(=C=CC[C@H](O)c1ccccc1OCCO)C[C@H](O)c1ccccn1 | true |
| O=C1C2C=CC(C(O)c3cccs3)N(Nc3ccccc3F)C2C(=O)N1c1ccccc1 (stereo unspecified) | false |
| CC(C)C(O)C1C=CC2C(=O)N(c3ccccc3)C(=O)C2N1Nc1ccc(C#N)cc1 (stereo unspecified) | true |
| C=CCNC(=O)[C@@H]1[C@H]2C(=O)O[C@H](c3ccccc3)[C@H](c3ccccc3)N2[C@H](c2ccccc2OCCO)[C@@]12C(=O)Nc1ccc(C#CC3=CCCCC3)cc12 | true |
| C=C(COC)C(=O)CC[C@@H](OC(=O)c1cccnc1)c1ccc(CO)o1 | false |
| CN(C)CCCNC(=O)[C@@]1(Cc2ccccc2I)c2ccccc2C(=O)N(Cc2ccccc2C(F)(F)F)[C@H]1c1ccc(CO)cc1 | false |

====

# Test system: Lefty1
# experimental.details: Lefty1 binders on small-molecule microarrays, primary screen, biochemical, small-molecule microarray, 635/667 nm fluorescence (AID 1139)
# experimental.setup: small-molecule microarray binding, fluorescence 635/667; higher = more signal
Record YES whenever composite z-score is at 0.5 or higher; record NO when lower.

| molecule | category.label |
| --- | --- |
| CC1=C2[C@@H](CCc3ccccc3)OB(O)C[C@@H]2n2c(=O)n(-c3ccccc3)c(=O)n2C1 | YES |
| COC(=O)[C@@]1(Cc2ccc(F)cc2)[C@H]2c3cc(C(=O)N4CCCC4)n(Cc4cccc5ccccc45)c3C[C@H]2CN1C(=O)c1ccccc1 | NO |
| CCOC(=O)C[C@H]1[C@H](OC(=O)Cc2ccc3c(c2)OCO3)[C@@H](NC(=O)C2CCCCC2)c2cc(OCCCO)ccc2N1C(=O)Cc1ccc(OC)cc1 | NO |
| C=CC[C@@]1(C(=O)N2CCOCC2)N=C(c2ccc(OCCCO)cc2)O[C@@H]1c1ccccc1N=[N+]=[N-] | NO |
| O=C(OCCF)C1=CCC(c2cccc(Cl)c2)O1 (configuration not stated) | NO |
| CO[C@H]1O[C@H](CO)[C@@H](OC(=O)Nc2ccc(Oc3ccccc3)cc2)[C@H](OC(=O)Nc2ccccc2)[C@H]1OC(=O)Nc1ccccc1 | NO |
| CC(C)C[C@@H]1NC(=O)[C@H]2C[C@@H](C(=O)NCCCCCCNC(=O)CS)[C@@H](c3cccc(OCCO)c3)N2C1=O | YES |
| C#CCN(C(/C=C/c1ccccc1)CO)C(C(=O)O)c1ccccc1 (configuration not stated) | NO |
| COc1ccc(C#Cc2ccc3c(c2)[C@]2(C(=O)N3)[C@H](c3ccc(O)cc3)N3[C@H](c4ccccc4)[C@H](c4ccccc4)OC(=O)[C@H]3[C@@H]2C(=O)N2CCCCCCC2)cc1 | YES |
| COC(=O)[C@@]1(Cc2ccc(OC)cc2)[C@H]2c3cc(C(=O)N4CCCC4)n(Cc4cc(F)cc5c4OCOC5)c3C[C@H]2CN1C(=O)c1ccccc1 | NO |
| COc1ccccc1CN1C(=O)c2ccccc2[C@@H](C(=O)NCCN2CCOCC2)[C@@H]1c1ccc(CO)cc1 | NO |
| CCOC(=O)C[C@H]1[C@H](OC(=O)c2ccc(-c3ccccc3)cc2)[C@@H](NC(=O)Cc2ccc(OC)cc2)c2cc(OCCCO)ccc2N1C(=O)c1ccc2ccccc2n1 | NO |
| O=C1O[C@H](c2ccccc2)[C@H](c2ccccc2)N2[C@H]1[C@@H](C(=O)N1CCN(c3ncccn3)CC1)[C@]1(C(=O)Nc3ccccc31)[C@H]2c1ccc(OCCO)cc1 | YES |
| CC(C)=CCCC(C)=CC(O)C1C=CC2C(=O)N(c3ccccc3)C(=O)C2N1Nc1ccccc1 (configuration not stated) | NO |
| O=C/C=C/c1ccc(Cl)cc1 | NO |
| O=C1C[C@@](C(=O)NC2CC2)(c2ccc([N+](=O)[O-])cc2)[C@@H](c2ccc(CO)cc2)N1CC12CC3CC(CC(C3)C1)C2 | NO |
| C=CCC(OC(C)=O)[C@@H]1[C@@H](N(Cc2ccc(-c3cccc(C(F)(F)F)c3)o2)C(=O)c2ccc(C)cc2)c2cc(OCCCO)ccc2N1C(=O)c1ccc(-c2ccccc2)cc1 (some centres not stated) | YES |
| C=CC[C@@H](OC(=O)Nc1ccc(OC)cc1)c1ccc(O)c2ccccc12 | YES |
| N[C@@H](Cc1ccccc1)Cn1cc(-c2ccccc2)nn1 | NO |
| O=C1O[C@@H](c2ccccc2)[C@@H](c2ccccc2)N2[C@@H](c3ccccc3OCCO)[C@]3(C(=O)Nc4ccc(C#CC5(O)CCCCCC5)cc43)[C@@H](C(=O)Nc3nc4ccccc4s3)[C@H]12 | YES |
| COCCCNC(=O)[C@@]1(c2ccc([N+](=O)[O-])cc2)CC(=O)N(CC23CC4CC(CC(C4)C2)C3)[C@@H]1c1ccc(CO)cc1 | YES |

====

Recorded z-score by entry
# experimental.details: basal RPMI8226 mitochondrial membrane potential changes, profiling panel, cell-based, JC-1 fluorescence, 24 h, 100 nL compound (AID 1169); also: test concentration not given here
# experimental.setup: RPMI8226 myeloma, JC-1 mitochondrial potential fluorescence, higher = more signal

| molecule | z-score |
| --- | --- |
| O=C1C2C=CC(C(O)c3ccc(-c4ccccc4)s3)N(n3cnnc3)C2C(=O)N1Cc1ccccc1 (centres undefined) | -0.128 |
| CCOC(=O)C1=CCC(c2ccc(C#N)cc2)N(S(=O)(=O)c2ccc(C)cc2)C1 (centres undefined) | -0.516 |
| COc1ccc([Si](C)(C)[C@@H]2[C@@H](CCn3cc([C@H](O)c4ccccc4)nn3)O[C@]3(C(=O)N(Cc4cccc(N5CCOC5=O)c4)c4ccccc43)[C@H]2C)cc1 | -0.671 |
| COCCOC(=O)N1C(=O)[C@@]2(c3cc(C#CCNC(N)=O)ccc31)[C@H](c1ccc(O)cc1)N1[C@H](c3ccccc3)[C@H](c3ccccc3)OC(=O)[C@H]1[C@@H]2C(=O)NC[C@H](O)c1ccccc1 | 0.326 |

====

# experimental.system: Streptavidin (Streptomyces avidinii) (UniProt P22629)
# Sequence (P22629 whole entry, looked up): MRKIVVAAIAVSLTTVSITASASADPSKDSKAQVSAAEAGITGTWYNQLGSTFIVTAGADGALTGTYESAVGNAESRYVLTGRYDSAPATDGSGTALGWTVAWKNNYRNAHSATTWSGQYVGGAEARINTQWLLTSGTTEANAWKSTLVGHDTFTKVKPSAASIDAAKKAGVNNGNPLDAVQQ
# experimental.details: streptavidin binders on small-molecule microarray, primary screen, artefact control for SMM compound annotation, biophysical, 635/667 nm fluorescence (AID 1147);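 also: signal reflects streptavidin binding to arrayed compounds as a control protein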
# experimental.setup: streptavidin binding, higher = more signal

| compound | composite z-score |
| --- | --- |
| O=C(CS)NCCCCCCNC(=O)[C@@H]1C[C@@H]2C(=O)N3CCC[C@H]3C(=O)N2[C@@H]1c1ccc(O)cc1 | -0.974 |
| COCC(=C=CC[C@H](O)c1ccc(OCCO)cc1)C[C@H](O)c1cc(Cl)cc(Cl)c1O | 0.169 |
| CN1C(=O)C2C=CC(C(O)c3ccccn3)N(Nc3ccccc3)C2C1=O (stereo not drawn) | 0.324 |
| CN1C(=O)C2C(C1=O)C1C=C(CCCO)C2C(c2cccs2)N1C (stereo not drawn) | -0.96 |
| CCOC(=O)[C@H]1C[C@H]2O[C@@]23C[C@H]1C(=O)N1CCCC1[C@@H]3O[Si](C)(C)C(C)(C)C (stereo partly drawn) | -0.266 |
| CC(=O)NCCCC[C@@H]1NC(=O)[C@H]2C[C@@H](C(=O)NCCCCCC[N+](C)(C)C)[C@@H](c3cccc(OCCO)c3)N2C1=O | 0.927 |
| CC(C)=CCCC(C)=CC(O)C1C=CC2C(=O)N(c3ccccc3)C(=O)C2N1Nc1ccccc1 (stereo not drawn) | 2.04 |
| CC(C)NC(=O)[C@@H]1c2ccccc2C(=O)N(Cc2ccccc2)[C@H]1c1ccc(CO)cc1 | -0.501 |
| C=CCNC(=O)[C@@H]1[C@H]2C(=O)O[C@H](c3ccccc3)[C@H](c3ccccc3)N2[C@H](c2ccccc2OCCO)[C@@]12C(=O)Nc1ccc(C#CC3=CCCCC3)cc12 | 0.562 |
| COc1ccc(CCNC(=O)[C@@]2(c3ccc([N+](=O)[O-])cc3)CC(=O)N(CC34CC5CC(CC(C5)C3)C4)[C@@H]2c2ccc(CO)cc2)cc1 | 0.531 |
| C=CCC(OC(C)=O)[C@@H]1[C@@H](N(Cc2cccc3ccccc23)C(=O)c2cccc3ccccc23)c2cc(OCCCO)ccc2N1C(=O)c1ccc2ccccc2n1 (stereo partly drawn) | 0.193 |
| CCCC[C@@H]1C[C@H]1[C@@H](NC(=O)c1ccc(-c2ccccc2)cc1)c1ccc(-c2ccccc2)cc1 | 0.305 |
| Cc1ccc(F)cc1S(=O)(=O)N[C@@H]1CCN(Cc2ccc(-c3ccccc3)cc2)C1 | -0.164 |
| O=C1C2C=CC(C(O)c3ccc(F)cc3)N(Nc3ccccc3)C2C(=O)N1c1ccccc1 (stereo not drawn) | 0.0517 |
| [N-]=[N+]=NCc1ccccc1C[C@]1(C(=O)O)N=C(c2ccc(OCCCO)cc2)O[C@H]1c1ccccc1CN=[N+]=[N-] | 1.66 |
| CC(=O)C1=CCC(c2ccccc2)N(S(=O)(=O)c2ccc(C)cc2)C1 (stereo not drawn) | 1.69 |
| C#CCN(C(/C=C/c1ccccc1)CO)C(C(=O)O)c1ccccc1 (stereo not drawn) | 0.18 |
| NCCCCCNC(=O)[C@H]1C[C@H]2C(=O)NCC(=O)N2[C@H]1c1cccc(OCCO)c1 | 0.579 |
| C=CC[C@@H](OC(=O)Nc1ccc(OC)cc1)c1ccc(O)c2ccccc12 | 0.737 |
| O=C1O[C@H](c2ccccc2)[C@H](c2ccccc2)N2[C@H]1[C@@H](C(=O)NC[C@H](O)c1ccccc1)[C@]1(C(=O)Nc3ccc(C#CCCO)cc31)[C@H]2c1ccc(O)cc1 | -1.11 |
| COC(=O)c1ccc(C23CC2(C(NP(=O)(c2ccccc2)c2ccccc2)c2ccccc2)C3)cc1 (stereo not drawn) | 1.7 |
| O=C1C[C@@](C(=O)NC2CC2)(c2ccc([N+](=O)[O-])cc2)[C@@H](c2ccc(CO)cc2)N1CC12CC3CC(CC(C3)C1)C2 | 0.465 |
| COc1ccc(C#Cc2ccc3c(c2)[C@]2(C(=O)N3)[C@H](C(=O)NC[C@H](O)c3ccccc3)[C@H]3C(=O)O[C@H](c4ccccc4)[C@H](c4ccccc4)N3[C@@H]2c2ccccc2OCCO)cc1 | 0.924 |
